meta.source: the supplement of paper PMC10567573

B1: TFE3 (parent)
chain: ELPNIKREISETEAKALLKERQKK

Variants of: B1
Experiment: protein stability index of a GFP-peptide fusion (GPS, HEK-293T) (PSI 1-6); higher = more stable;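 further: lentivirally expressed fusions sorted by FACS into six bins by GFP to DsRed ratio, PSI derived from sequencing read proportions per bin multiplied by bin number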
Conditions: c terminus: a fixed tail appended
Class label 1: protein stability index at least 3. Class label 0: protein stability index below 3.

q: Is protein stability index at least 3? Consider ELPNIKREISETEAKALLKERAKK [Q22A]
a: label 0

q: Record ELPNIKREITETEAKALLKERQKK [S10T] ; criterion: protein stability index no lower than 3. Met?
a: label 0

q: Entry ELPNIKREISETEAKADLKERQKK [L17D] : is its protein stability index no less than 3?
a: label 0

q: Could you please find out whether ELFNIKREISETEAKALLKERQKK [P3F] has protein stability index that meets 3 or exceeds it?
a: label 0

q: Does protein stability index meet or surpass 3 for ELPNIKREISETEAKALGKERQKK [L18G] ?
a: label 0

q: Threshold query (protein stability index >= 3) on ELPNIKREISETMAKALLKERQKK [E13M]
a: label 1

q: Does protein stability index meet or surpass 3 for ELPNIKREISETEAKALLKERQNK [K23N] ?
a: label 0

q: Decide: protein stability index of ELPTIKREISETEAKALLKERQKK [N4T] >= 3?
a: label 1

q: Is protein stability index at least 3? Consider ELPNIKREISETEAKALLKERQKE [K24E]
a: label 1

q: Can ELPNIKREISETEAKALLIERQKK [K19I] be said to have protein stability index at or above 3?
a: label 0

q: Does protein stability index meet or surpass 3 for ELPNIKREISETEAKALLKVRQKK [E20V] ?
a: label 0

q: Given the entry ELPNIKREISETEAKALLKERQVK [K23V] , answer whether its protein stability index meets or surpasses 3.
a: label 0

q: # check: protein stability index of ELPNIKREISETEAKALLKMRQKK [E20M] is greater than or equal to 3
a: label 0

q: # check: protein stability index of ELPNIKREISPTEAKALLKERQKK [E11P] is greater than or equal to 3
a: label 1

q: Please tell me: is the variant ELPNIKHEISETEAKALLKERQKK [R7H] at or over 3 in terms of protein stability index?
a: label 1

q: Assess whether reported protein stability index for ELPNIKREISETEVKALLKERQKK [A14V] sits at 3 or higher.
a: label 0

q: Quick check: does ELPNIKREISETEAKALLKERGKK [Q22G] have protein stability index greater than or equal to 3?
a: label 0

q: Evaluate ELPNEKREISETEAKALLKERQKK [I5E] : protein stability index at minimum 3?
a: label 1

q: Given the entry ELPNIKREISETEAKALLWERQKK [K19W] , answer whether its protein stability index meets or surpasses 3.
a: label 0

q: Check if protein stability index >= 3 (inclusive). Item: ELPNIKREISETEAKALLKPRQKK [E20P]
a: label 0

q: Given ELPNIKREISETEAKALLKEREKK [Q22E] , state whether its protein stability index is at least 3.
a: label 0

q: Hello, I need to know if ELPNIKREISETEAKALLKERQPK [K23P] has measured protein stability index not below 3. Thanks!
a: label 0

q: Record ELPNIKWEISETEAKALLKERQKK [R7W] ; criterion: protein stability index no lower than 3. Met?
a: label 0

q: # bool: protein stability index of ELPNIKREISVTEAKALLKERQKK [E11V] >= 3
a: label 0

q: Say whether ELPNIKREISETEAKALLKERQKY [K24Y] shows protein stability index of 3 or more.
a: label 0

q: Answer whether protein stability index of ELPNIKREISETEAKALLKERQQK [K23Q] is greater than or equal to 3.
a: label 0

q: Reported protein stability index reaches at least 3 for ELPNIKREISETEAFALLKERQKK [K15F] ?
a: label 0

q: Please tell me: is the variant ALPNIKREISETEAKALLKERQKK [E1A] at or over 3 in terms of protein stability index?
a: label 1

q: Is the recorded value of protein stability index equal to or greater than 3 for this variant? ELPNIKREISETEACALLKERQKK [K15C]
a: label 1

q: Exam item: decide whether the reported protein stability index for ELPNIKREISEGEAKALLKERQKK [T12G] is at least 3.
a: label 1

q: Does ELPNLKREISETEAKALLKERQKK [I5L] have a reported protein stability index of at least 3?
a: label 1

q: Please check the record ELPNIKREISETEAKALLKEQQKK [R21Q] and state if its protein stability index is at or above 3.
a: label 0

q: Please indicate if the recorded protein stability index for ELPHIKREISETEAKALLKERQKK [N4H] meets or exceeds 3.
a: label 0

q: protein stability index >= 3 for ELINIKREISETEAKALLKERQKK [P3I] ?
a: label 0

q: Would you say ELPNIKREISETEAKWLLKERQKK [A16W] shows protein stability index at minimum 3?
a: label 0

q: # bool: protein stability index of ELPNIKREISETEAKALLDERQKK [K19D] >= 3
a: label 0

q: Test whether the variant ELPNIKREISETDAKALLKERQKK [E13D] records protein stability index of 3 or higher.
a: label 1

q: Test whether the variant ELPNIKREISETEAKALLKLRQKK [E20L] records protein stability index of 3 or higher.
a: label 0

q: Please indicate if the recorded protein stability index for ELPNIKREISETEAKALLKERQHK [K23H] meets or exceeds 3.
a: label 0

q: Reported protein stability index reaches at least 3 for ELPNIKREISECEAKALLKERQKK [T12C] ?
a: label 0

q: Is the recorded value of protein stability index equal to or greater than 3 for this variant? ELPNIKREISETEMKALLKERQKK [A14M]
a: label 0

q: Decide: protein stability index of ELPNIKRECSETEAKALLKERQKK [I9C] >= 3?
a: label 1
